- experimental target: Macrophage metalloelastase (Homo sapiens, UniProt P39900)
- Sequence (P39900 whole entry): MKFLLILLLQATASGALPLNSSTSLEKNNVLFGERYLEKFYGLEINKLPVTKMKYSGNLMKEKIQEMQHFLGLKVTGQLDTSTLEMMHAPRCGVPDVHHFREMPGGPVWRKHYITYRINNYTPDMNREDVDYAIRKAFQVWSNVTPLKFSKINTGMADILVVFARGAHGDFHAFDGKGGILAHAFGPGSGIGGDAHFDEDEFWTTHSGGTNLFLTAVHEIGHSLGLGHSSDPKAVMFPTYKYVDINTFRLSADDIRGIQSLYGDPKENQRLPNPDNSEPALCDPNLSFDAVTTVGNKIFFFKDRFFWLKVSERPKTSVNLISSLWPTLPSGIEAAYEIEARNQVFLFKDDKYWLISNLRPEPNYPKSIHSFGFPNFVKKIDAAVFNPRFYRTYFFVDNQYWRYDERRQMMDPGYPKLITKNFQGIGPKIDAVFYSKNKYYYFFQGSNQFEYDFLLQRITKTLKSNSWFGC
- test protocol: Inhibition of recombinant human MMP12 using Mca-Pro-Leu-Gly-Leu-Dpa(Dnp)-Ala-Arg-NH2 as substrate after 30 mins by fluorescence spectrometry
quantity measured: IC50
Please don't drop the unit; write it after the number.

As a guide, the following entries are already answered.
Fill in the blank: the reported IC50 of CC(C)[C@H](NS(=O)(=O)c1ccc2c(c1)oc1ccc(NS(=O)(=O)c3ccc(I)cc3)cc12)C(=O)O is ____.
297 nM

Fill in the blank: the reported IC50 of CC(C)[C@H](NS(=O)(=O)c1ccc2c(c1)oc1ccc(NC(=O)Oc3ccc(Br)cc3)cc12)C(=O)O is ____.
11 nM

Fill in the blank: the reported IC50 of CC(C)[C@H](NS(=O)(=O)c1ccc2c(c1)oc1ccc(NC(=O)Oc3ccc(I)cc3)cc12)C(=O)O is ____.
8.5 nM

Now look at this entry.
Fill in the blank: the reported IC50 of CC(C)[C@H](NS(=O)(=O)c1ccc2c(c1)oc1ccc(NC(=O)c3ccc(I)cc3)cc12)C(=O)O is ____.
502 nM

All values here come from ChEMBL document CHEMBL4177715.
